Please provide measured protein stability index for the entries that follow.
B1: CCDC6 (parent)
chain: ASVTIQARAEQEEEFISNTLFKKI

- Variants of: B1
- procedureDetails: protein stability index of a GFP-peptide fusion (GPS, HEK-293T) (PSI 1-6); higher = more stable;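 also: lentivirally expressed fusions sorted by FACS into six bins by GFP to DsRed ratio, PSI derived from sequencing read proportions per bin multiplied by bin number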
- cond: c terminus: a fixed tail appended
Answers are plain numbers.

| mutationString | protein stability index |
| --- | --- |
| S17M | 3.06 |

Quick one: give me protein stability index for each item below, same order please.
1. N18V
2. E10W
3. N18L
4. E13D
5. T19R
6. T19W
7. E12I

1. 1.5
2. 1.54
3. 2.56
4. 3.54
5. 3.84
6. 3.13
7. 1.69

Source: the supplement of paper PMC10567573
